The measured values listed here are drawn from patent US20250163056A1.

Experimental System: Bovine cardiac myosin (Bos taurus (Bovine), UniProt Q9BE39)
Sequence (Q9BE39 whole entry): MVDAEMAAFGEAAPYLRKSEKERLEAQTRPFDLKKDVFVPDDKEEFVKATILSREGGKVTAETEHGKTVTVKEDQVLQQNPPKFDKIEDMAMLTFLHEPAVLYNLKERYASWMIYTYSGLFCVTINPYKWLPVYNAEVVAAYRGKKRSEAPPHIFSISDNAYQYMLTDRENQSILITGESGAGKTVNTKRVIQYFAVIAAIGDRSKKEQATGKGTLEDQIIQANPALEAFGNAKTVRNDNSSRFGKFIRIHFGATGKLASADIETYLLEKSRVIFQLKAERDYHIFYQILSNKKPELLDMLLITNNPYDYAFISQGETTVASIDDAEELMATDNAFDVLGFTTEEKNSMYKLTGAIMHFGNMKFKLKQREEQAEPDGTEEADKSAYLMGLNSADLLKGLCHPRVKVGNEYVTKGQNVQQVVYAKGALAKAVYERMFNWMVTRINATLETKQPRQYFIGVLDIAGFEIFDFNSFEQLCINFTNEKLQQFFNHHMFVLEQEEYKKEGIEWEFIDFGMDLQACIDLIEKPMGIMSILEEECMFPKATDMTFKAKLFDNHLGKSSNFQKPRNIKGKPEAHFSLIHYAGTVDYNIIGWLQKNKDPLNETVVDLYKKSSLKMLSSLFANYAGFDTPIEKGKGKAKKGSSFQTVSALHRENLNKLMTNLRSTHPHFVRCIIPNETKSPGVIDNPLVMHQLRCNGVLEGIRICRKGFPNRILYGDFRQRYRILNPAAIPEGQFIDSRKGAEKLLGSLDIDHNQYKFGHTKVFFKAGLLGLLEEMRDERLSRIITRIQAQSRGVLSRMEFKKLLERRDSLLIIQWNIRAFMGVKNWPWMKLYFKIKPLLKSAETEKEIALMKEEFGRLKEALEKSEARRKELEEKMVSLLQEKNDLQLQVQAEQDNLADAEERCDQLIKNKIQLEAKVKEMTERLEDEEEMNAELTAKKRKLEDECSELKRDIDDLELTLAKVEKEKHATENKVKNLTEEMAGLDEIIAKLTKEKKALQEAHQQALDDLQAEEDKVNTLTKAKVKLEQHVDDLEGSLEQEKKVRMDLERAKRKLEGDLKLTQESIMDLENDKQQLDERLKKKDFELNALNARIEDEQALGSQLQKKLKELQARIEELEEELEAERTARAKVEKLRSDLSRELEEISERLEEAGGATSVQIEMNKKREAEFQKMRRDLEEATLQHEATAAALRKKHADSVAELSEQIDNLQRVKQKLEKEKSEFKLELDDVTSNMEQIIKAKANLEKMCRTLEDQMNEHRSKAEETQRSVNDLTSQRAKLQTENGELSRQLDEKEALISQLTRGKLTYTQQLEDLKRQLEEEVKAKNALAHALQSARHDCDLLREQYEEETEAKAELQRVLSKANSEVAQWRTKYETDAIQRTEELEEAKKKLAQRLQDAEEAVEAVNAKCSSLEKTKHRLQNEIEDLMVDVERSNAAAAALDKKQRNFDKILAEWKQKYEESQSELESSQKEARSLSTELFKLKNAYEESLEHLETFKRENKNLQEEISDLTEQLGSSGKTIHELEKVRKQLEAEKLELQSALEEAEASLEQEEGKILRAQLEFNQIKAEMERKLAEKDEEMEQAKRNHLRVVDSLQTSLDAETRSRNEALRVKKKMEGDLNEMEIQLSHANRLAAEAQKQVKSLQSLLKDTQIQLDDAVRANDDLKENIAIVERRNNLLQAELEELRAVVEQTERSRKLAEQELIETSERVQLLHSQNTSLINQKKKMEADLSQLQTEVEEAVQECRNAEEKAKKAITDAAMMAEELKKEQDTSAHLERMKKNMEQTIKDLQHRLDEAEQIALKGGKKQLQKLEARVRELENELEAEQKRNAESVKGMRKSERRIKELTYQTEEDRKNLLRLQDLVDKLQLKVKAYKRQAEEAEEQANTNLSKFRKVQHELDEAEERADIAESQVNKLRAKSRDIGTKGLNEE
Sequence (P85100 whole entry partner): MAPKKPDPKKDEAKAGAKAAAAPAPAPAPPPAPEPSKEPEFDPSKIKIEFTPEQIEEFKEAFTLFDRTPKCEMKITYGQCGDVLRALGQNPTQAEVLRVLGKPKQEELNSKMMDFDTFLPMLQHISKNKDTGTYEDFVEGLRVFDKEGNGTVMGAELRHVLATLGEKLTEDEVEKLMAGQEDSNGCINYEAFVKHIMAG
Sequence (Q3SZE5 whole entry partner): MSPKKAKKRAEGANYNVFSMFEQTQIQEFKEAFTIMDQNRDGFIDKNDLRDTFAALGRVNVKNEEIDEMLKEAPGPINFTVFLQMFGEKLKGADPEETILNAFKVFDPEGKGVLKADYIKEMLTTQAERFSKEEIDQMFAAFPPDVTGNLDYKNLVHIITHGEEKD
Measurement Protocol: Cardiac muscle myosin II actin-activated ATPase assay (NADH-coupled)
Format: biochemical
Parameters: key: NMII-sel: no Ki value for cardiac myosin II could be determined; the compounds had no detectable inhibitory properties versus the cardiac myosin II
Test Context: cardiac myosin II Ki over nonmuscle myosin II EC50
Metric Name: Ratio CMMII:NMII Ki/EC50

// below: answered compounds
INSERT INTO assay_data (smiles_structure, experimental_system, observed_measurement) VALUES
  ('O=C1c2cc(C(F)(F)F)ccc2N=C2N(c3ccc4ncsc4c3)CC[C@@]12O', 'Bovine cardiac myosin (Bos taurus (Bovine), UniProt Q9BE39)', 'NMII-sel'),
  ('Cc1sc2c(c1C)C(=O)[C@]1(O)CCN(c3ccc(C#N)c(Cl)c3)C1=N2', 'Bovine cardiac myosin (Bos taurus (Bovine), UniProt Q9BE39)', 'NMII-sel'),
  ('Cc1ccc2c(c1)C(=O)[C@]1(O)CCN(c3ccc4ncccc4c3)C1=N2', 'Bovine cardiac myosin (Bos taurus (Bovine), UniProt Q9BE39)', 30.8),
  ('Cc1ccc2c(c1)C(=O)[C@]1(O)CCN(c3ccc(CO)c(Cl)c3)C1=N2', 'Bovine cardiac myosin (Bos taurus (Bovine), UniProt Q9BE39)', 5.0),
  ('COc1ccc(N2CC[C@@]3(O)C(=O)c4cc(C)c(C)cc4N=C23)cc1', 'Bovine cardiac myosin (Bos taurus (Bovine), UniProt Q9BE39)', 6.7);

Q) Give recorded Ratio CMMII:NMII Ki/EC50 with Bovine cardiac myosin (Bos taurus (Bovine), UniProt Q9BE39) for the following compound: "Cc1cc2c(s1)C(=O)[C@]1(O)CCN(c3ccc4ncccc4c3)C1=N2"
A) 33.7

Q) Kindly state the measured Ratio CMMII:NMII Ki/EC50 obtained for "Cc1ccc2c(c1)C(=O)[C@]1(O)CCN(c3ccc(C#N)c(C)c3)C1=N2" with Bovine cardiac myosin (Bos taurus (Bovine), UniProt Q9BE39).
A) 13.6

Q) Please provide the recorded Ratio CMMII:NMII Ki/EC50 for "Cc1ccc2cc(N3CC[C@@]4(O)C(=O)c5cc(C)c(C)cc5N=C34)ccc2n1" , tested on Bovine cardiac myosin (Bos taurus (Bovine), UniProt Q9BE39).
A) NMII-sel

====

Experimental System: Bovine cardiac myosin (Bos taurus (Bovine))
Measurement Protocol: Cardiac muscle myosin II actin-activated ATPase assay (NADH-coupled)
Format: biochemical
Test Context: 300 nM cardiac myosin, 10 μM actin, 25° C.; read-out: CMMII KI
Metric Name: pKi
In textbook form, pKi equals minus log to base ten of the concentration in mol/L.

INSERT INTO results (molecule, observed_measurement) VALUES
  ('Cc1cc2c(cc1F)C(=O)[C@]1(O)CCN(c3ccccc3)C1=N2 [BPN-0026387]', 4.89);

Q) # get_value(readout='pKi', item= Cc1ccc2c(c1)C(=O)[C@]1(O)CCN(c3ccn4ncnc4c3)C1=N2 [BPN-0027441] )
A) 3.64

Q) Returns the measured pKi for the input molecule. Input: COc1ccc(N2CC[C@@]3(O)C(=O)c4cc(C)c(C)cc4N=C23)cn1 [BPN-0028648]
A) 5.36

Q) Which pKi value is on record for Cc1ncc(N2CC[C@@]3(O)C(=O)c4cc(F)c(C(F)(F)F)cc4N=C23)s1 [BPN-0026667] ?
A) 5.21

====

Measurement Protocol: Photostability, percentage remaining undegraded under illumination or in the dark
Test Context: percentage remaining undegraded after 24 hours illumination
Metric Name: Photostability 24 hours
Be sure to follow the number with its unit.

Below: 4 compounds and their reported Photostability 24 hours.
INSERT INTO assay_data (smiles_structure, metric_name, observed_measurement) VALUES
  ('Cc1cc2c(cc1C)C(=O)[C@]1(O)CCN(c3cnc4c(c3)CCCC4)C1=N2', 'Photostability 24 hours', '2.5%'),
  ('Cc1cc2c(s1)C(=O)[C@]1(O)CCN(c3ccc(C#N)c(Cl)c3)C1=N2', 'Photostability 24 hours', '95.9%'),
  ('Cc1ccc2c(c1)C(=O)[C@]1(O)CCN(c3ccc4c(c3)OCCN4)C1=N2', 'Photostability 24 hours', '67.7%'),
  ('Cc1ccc2c(c1)C(=O)[C@]1(O)CCN(c3ccc4nc(C)ccc4c3)C1=N2', 'Photostability 24 hours', '26.3%');

Q) If you can, please state the reported Photostability 24 hours value of "Cc1ccc2c(c1)C(=O)[C@]1(O)CCN(c3ccc4ncsc4c3)C1=N2" .
A) 24.7%

Q) Which measured Photostability 24 hours value corresponds to "COc1ccc(N2CC[C@@]3(O)C(=O)c4cc(C)c(C(F)(F)F)cc4N=C23)cc1" ?
A) 91.8%

Q) Which measured Photostability 24 hours value corresponds to "CNc1cc(N2CC[C@@]3(O)C(=O)c4cc(C)c(C)cc4N=C23)ccn1" ?
A) 62.6%

Q) Look up Photostability 24 hours: "COc1ccc2cc(N3CC[C@@]4(O)C(=O)c5cc(C)ccc5N=C34)ccc2n1"
A) 42.2%

====

Measurement Protocol: Photostability, percentage remaining undegraded under illumination or in the dark
Test Context: percentage remaining undegraded after 24 hours illumination
Note to self: use Condition met only for Photostability 24 hours readings below 40%; a reading exactly at 40% still gets Condition not met.

Study these solved cases before continuing.
INSERT INTO assay_data (smiles_structure, class_name) VALUES
  ('Cc1nc2ccc(N3CC[C@@]4(O)C(=O)c5cc(C)c(C)cc5N=C34)cc2o1', 'Condition met'),
  ('Cc1cc2c(cc1C)C(=O)[C@]1(O)CCN(c3cnc(CO)c(Cl)c3)C1=N2', 'Condition not met'),
  ('Cc1ccc2c(c1)C(=O)[C@]1(O)CCN(c3cnc4sccc4c3)C1=N2', 'Condition not met'),
  ('Cc1cc2c(cc1F)C(=O)[C@]1(O)CCN(c3cnn(C)c3)C1=N2', 'Condition met'),
  ('CCc1cc2c(s1)N=C1N(c3ccc(C)cc3)CC[C@@]1(O)C2=O', 'Condition met');

Could you now consider this next compound?
Q) Field: below-cutoff. Rule: recorded Photostability 24 hours strictly less than 40%. Subject: "O=C1c2c(sc3c2CCCC3)N=C2N(c3ccccc3)CC[C@@]12O"
A) Condition not met

====

Measurement Protocol: Photostability, percentage remaining undegraded under illumination or in the dark
Test Context: percentage remaining undegraded after 24 hours illumination
Metric Name: Photostability 24 hours (%)
// note: answer is a bare numeric in %

Examples with their reported Photostability 24 hours follow.
INSERT INTO assay_data (smiles_structure, observed_measurement) VALUES
  ('Cc1cccc(N2CC[C@@]3(O)C(=O)c4cc(C)ccc4N=C23)c1', 4.7),
  ('CCc1cc2c(s1)N=C1N(c3ccc4ncccc4c3)CC[C@@]1(O)C2=O', 76.0),
  ('Cc1cc2c(cc1C(F)(F)F)N=C1N(c3ccc(Cl)cc3)CC[C@@]1(O)C2=O', 88.1);

Continue with the next compound.
Q) What value of measured Photostability 24 hours is listed for "Cc1cc2cc(N3CC[C@@]4(O)C(=O)c5cc(C)c(C)cc5N=C34)ccc2o1" ?
A) 3.8

====

Experimental System: Rabbit skeletal myosin
Measurement Protocol: Skeletal muscle myosin II actin-activated ATPase assay
Test Context: 20 nM skeletal muscle myosin II; read-out: SKMMII KI
Metric Name: pKi
Bear in mind: pKi is minus log10 of a mol/L concentration; give just that figure.

These recorded examples may help you get a feel for the data.
INSERT INTO results (smiles_structure, observed_measurement) VALUES
  ('Cc1ccc2c(c1)C(=O)[C@]1(O)CCN(c3ccc4sccc4c3)C1=N2', 5.41),
  ('Cn1ncc2c1N=C1N(c3ccccc3)CC[C@@]1(O)C2=O', 3.48),
  ('O=C1c2cc(Cl)ccc2N=C2N(c3ccc(Cl)cc3)CC[C@@]12O', 6.28);

Q) Reported pKi for "Cc1ccc2c(c1)C(=O)[C@]1(O)CCN(c3ccn4ncnc4c3)C1=N2" : what is it?
A) 4.92

Q) Find the recorded pKi belonging to "COc1cccc(N2CC[C@@]3(O)C(=O)c4cc(C)ccc4N=C23)c1" and report it.
A) 5.15

Q) Please give the measured pKi for this molecule: "Cc1cc2c(cc1C)C(=O)[C@]1(O)CCN(c3ccc4ncc(CO)cc4c3)C1=N2"
A) 5.82

Q) Consider the molecule shown here: "O=C1c2cc(Cl)ccc2N=C2N(c3ccc4ccsc4c3)CC[C@@]12O" What is its recorded pKi?
A) 4.92

Q) Please give the measured pKi for this molecule: "Cc1ccc(N2CC[C@@]3(O)C(=O)c4cc(F)c(C)cc4N=C23)cc1C"
A) 5.24

Q) Give its pKi value. Item: "Cc1cc2c(cc1C)C(=O)[C@]1(O)CCN(c3ccc4c(c3)NCCO4)C1=N2"
A) 6.00

====

Experimental System: Rabbit skeletal myosin
Measurement Protocol: Skeletal muscle myosin II actin-activated ATPase assay
Test Context: 20 nM skeletal muscle myosin II; read-out: SKMMII KI
Metric Name: pKi
Entry type: numeric. Quantity: pKi, the -log10 of concentration in molar units.

Q) What pKi value was documented for this compound, Cc1cc2c(cc1Cl)C(=O)[C@]1(O)CCN(c3ccccc3)C1=N2 [BPN-0026659] ?
A) 6.03
